Assay Name: Toxicity liver stage against HepG2, at 10uM
Assay type: cell-based
Parameters: test concentration 10 uM, cell line HepG2-A16-CD81EGFP
Test Conditions: human, HepG2-A16-CD81EGFP cells; read-out: INHIBITION
The following compounds are shown together with reported cytotoxicity at 10 µM values.
Your answer is read as %, so omit the unit and give the number.

For orientation, consider the following solved cases.
1) CC[C@@]1(O)CCN(C(=O)c2ccc(-c3cccc(F)c3)cc2)C[C@H]1O = -5.68
2) CNC(=O)c1ccc(CN2CCC(N(C)Cc3noc(C)n3)C2)cc1 (stereo not given) = 5.56
3) CC(C)c1noc([C@@H]2C[C@H](NS(=O)(=O)Cc3ccccc3)CN2C)n1 = -2.1

query: Need cytotoxicity at 10 µM, item "CCC[C@@H]1CN(Cc2cc3c(cc2OC)OCO3)C[C@H]1C(=O)O"
result: -2.7

query: Need cytotoxicity at 10 µM, item "COCCNC(=O)c1cc(S(=O)(=O)N2CCCCC2)cs1"
result: -8.94
